Tested on: human monocyte-derived macrophages (M0)
Procedure details: cell shape (eccentricity) Z-score vs DMSO control; higher = more elongated, M2-like morphology
Applied conditions: 20 µM; 24 h; macrophage state: M0 (M-CSF)
Whole data set: some 3,800 compounds, median “cell shape (eccentricity) Z-score vs DMSO control” near 1.1, cut for the lowest 2% near -4.7. Many of the other results were omitted from the sample, so the lowest values are more common in it than they were.
Readout type: cell shape (Z-score)
Give bare numbers.

Solved cases (4 shown):
CC(Nc1nc(N2CCCC2)nc2ccccc12)c1ccccc1 (stereo not given); -7.72
C[C@H](CCC(=O)NCC(=O)O)[C@H]1CCC2C3C(C[C@H](O)[C@@]21C)[C@@]1(C)CC[C@@H](O)CC1C[C@H]3O (stereo not given in full); 1.5
CCn1cc(C(=O)O)c(=O)c2cc(F)c(N3CCNCC3)nc21; -1.1
O=C(O)c1ccc(NCc2nc3cc4ccccc4cc3[nH]2)cc1; 1.43

Entry COc1cc2nc(N3CCCN(C)CC3)nc(NC3CCN(Cc4ccccc4)CC3)c2cc1OC , cell shape (Z-score) reported as 3.25

###

Test system: human monocyte-derived macrophages (M0)
Procedure details: cell shape (eccentricity) Z-score vs DMSO control; higher = more elongated, M2-like morphology
Applied conditions: 20 µM; 24 h; macrophage state: M0 (M-CSF)
The full ranking holds about 3,800 compounds; the median of “cell shape (eccentricity) Z-score vs DMSO control” is about 1.1, and the lowest 2% start at about -4.7. The entries come from a sample that favours the lowest values as a whole.
Kindly return MET if reported cell shape (Z-score) is no lower than 1; return NOT MET if it is lower.

CC(C)(C)c1ccc(S(=O)(=O)NCc2ccc(C(=O)Nc3cccnc3)cc2)cc1; MET
CC1(C)CCC(C)(C)c2cc([C@@H](O)C(=O)Nc3ccc(C(=O)O)cc3F)ccc21; MET
Nc1ccccc1NC(=O)c1ccc(CNC(=O)OCc2cccnc2)cc1; NOT MET
CC(C)C12CC1C(C)(O[C@@H]1O[C@H](CO)[C@@H](O)[C@H](O)[C@H]1O)CC2=O (stereo partly specified); MET
CCN1CCN(c2cc3c(cc2F)c(=O)c(C(=O)O)cn3C2CC2)CC1; NOT MET

Turning to the following compound.
Q: Answer whether cell shape (Z-score) of O=C(Nc1ccc(C(=O)O)c(O)c1)c1ccccc1 is greater than or equal to 1.
A: MET

###

Exercise: state measured cell shape (Z-score) for each of the compounds provided.
System: human monocyte-derived macrophages (M0)
Procedure details: cell shape (eccentricity) Z-score vs DMSO control; higher = more elongated, M2-like morphology
Applied conditions: 20 µM; 24 h; macrophage state: M0 (M-CSF)
Over roughly 3,800 compounds, “cell shape (eccentricity) Z-score vs DMSO control” has its median near 1.1; the lowest 2% begin near -4.7. For the sample, the lowest values were picked, then their nearest neighbours and some compounds at random.
One number for each entry.

CC1(C)CC[C@]2(C(=O)O[C@@H]3O[C@H](CO[C@@H]4O[C@H](CO)[C@@H](O)[C@H](O)[C@H]4O)[C@@H](O)[C@H](O[C@@H]4O[C@H](CO)[C@@H](O)[C@H](O)[C@H]4O)[C@H]3O)CC[C@]3(C)C(=CCC4[C@@]5(C)CC[C@H](O)[C@@](C)(C(=O)O)C5CC[C@]43C)C2C1 (stereo partly drawn); 1.07
COc1cc(C[C@@H]2COC(c3ccc(O[C@@H]4O[C@H](CO)[C@@H](O)[C@H](O)[C@H]4O)c(OC)c3)[C@@H]2CO)ccc1O[C@@H]1O[C@H](CO)[C@@H](O)[C@H](O)[C@H]1O (stereo partly drawn); 2.98
Oc1ccc(-c2nc(-c3ccc(F)cc3)c(-c3ccncc3)[nH]2)cc1; -5.27

Please give cell shape (Z-score), item by item, for the list that follows.
1. C=C1[C@H]2CC[C@@]3(C)[C@H](c4ccoc4)OC(=O)C[C@]13O[C@H]1C[C@H](O)C(C)(C)[C@H](CC(=O)OC)[C@]12C
2. COC(=O)C(CCCNC(=N)N)NC(=O)CCCc1c(-c2ccccc2)[nH]c2c(F)cc(F)cc12 (stereo not drawn)
3. Cc1ccccc1NC(=N)Nc1ccccc1C
4. COc1cc(O)c2c(c1)C(=O)c1cc(C)cc(O)c1C2=O
5. CCOc1ccc(Cc2cc([C@@H]3O[C@H](CO)[C@@H](O)[C@H](O)[C@H]3O)ccc2Cl)cc1

A:
1. -1.66
2. 6.11
3. 2.28
4. 2.65
5. -0.0179
